- ASSAY SYSTEM: GLP-1 Receptor (Homo sapiens)
- Construct: host or cells: HEK293/GLP1R/CRE-LUC (HEK293/CRE-Luc stably expressing the GLP-1 receptor)
- Sequence (P43220 24-463, species assumed): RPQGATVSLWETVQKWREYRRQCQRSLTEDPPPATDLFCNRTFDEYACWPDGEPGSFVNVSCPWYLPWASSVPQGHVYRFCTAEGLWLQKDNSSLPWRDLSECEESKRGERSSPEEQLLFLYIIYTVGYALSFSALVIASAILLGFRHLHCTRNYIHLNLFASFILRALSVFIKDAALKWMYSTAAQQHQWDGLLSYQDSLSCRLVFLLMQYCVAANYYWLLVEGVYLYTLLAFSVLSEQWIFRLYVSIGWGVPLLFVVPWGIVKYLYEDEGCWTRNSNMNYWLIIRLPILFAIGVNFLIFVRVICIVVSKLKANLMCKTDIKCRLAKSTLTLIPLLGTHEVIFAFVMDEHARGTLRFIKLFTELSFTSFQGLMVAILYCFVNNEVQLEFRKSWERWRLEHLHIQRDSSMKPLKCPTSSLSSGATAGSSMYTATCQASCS
- TEST DETAILS: GLP-1R agonist cAMP stimulation assay (HEK293/GLP1R/CRE-LUC cells, Cisbio cAMP dynamic 2 kit);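 further: compounds tested in half-log serial dilution, cAMP detected with cAMP-d2 and anti-cAMP cryptate antibody reagents after 1 h at room temperature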
- Type: cell-based
- CONDITIONS: HEK293/CRE-Luc cell line stably expressing the GLP-1 Receptor; 1000 cells/well; 30 min at 37° C.; 0.5 mM IBMX, 0.1% BSA; read-out: GLP1R cAMP Stimulation DR: EC50
pEC50: −log10 of the molar value.
OBSERVATION TYPE: pEC50

Below, each entry is followed by its recorded pEC50 result.
MOLECULE	ASSAY SYSTEM	pEC50
CC1(c2ccc(Cl)cc2F)Oc2cccc(C3CCN(Cc4ncc(CCC(=O)O)n4C[C@@H]4CCO4)CC3)c2O1 (stereo partly drawn) [Compound 239]	GLP-1 Receptor (Homo sapiens)	9.35
C[C@]1(c2ccc(Cl)cc2F)Oc2cccc(C3CCN(Cc4ncc(-c5nnc(C(F)(F)F)[nH]5)cc4C4CCOC4)CC3)c2O1 (stereo partly drawn) [Compound 282]	GLP-1 Receptor (Homo sapiens)	8.43
CCn1cncc1Cn1c(CCC(=O)O)nnc1CN1CCC(c2cccc3c2OC(C)(c2ccc(Cl)cc2F)O3)CC1 (stereo not drawn) [Compound 144]	GLP-1 Receptor (Homo sapiens)	10.82
O=C(O)/C=C/c1cnc(CN2CCC(c3cccc4c3OC[C@@H](c3ccc(Cl)cc3)O4)CC2)n1Cc1cnco1 [Compound 205a]	GLP-1 Receptor (Homo sapiens)	9.59
Cc1ncoc1Cn1c(/C=C/C(=O)O)cnc1CN1CCC(c2cccc3c2OC[C@@H](c2ccc(Cl)cc2)O3)CC1 [Compound 199a]	GLP-1 Receptor (Homo sapiens)	8.80

P. CC1(c2ccc(Cl)cc2F)Oc2cccc(C3CCN(Cc4ncc(/C=C/C(=O)O)n4C[C@H]4CCOC4)CC3)c2O1 (stereo partly drawn) [Compound 154]
Q. C[C@H](c1ccccc1)n1c(/C=C/C(=O)O)cnc1CN1CCC(c2cccc3c2OC(C)(c2ccc(Cl)cc2F)O3)CC1 (stereo partly drawn) [Compound 153]
// query Looking only at measured pEC50, which entry is lower, P or Q ? Refer to your chosen item by its label in the answer.
// result Q

1. C/C(=C\c1cnc(CN2CCC(c3cccc4c3O[C@H](c3ccc(Cl)cc3)O4)CC2)n1C[C@@H]1CCO1)C(=O)O [Compound 133b]
2. CC1(c2ccc(Cl)cc2F)Oc2cccc(C3CCN(Cc4ncc(/C=C/C(=O)O)n4Cc4ccno4)CC3)c2O1 (stereo not drawn) [Compound 181]
3. CCn1cncc1Cn1c(/C=C/C(=O)O)cnc1CN1CCC(c2cccc3c2O[C@@](C)(c2ccc(Cl)cc2F)O3)CC1 [Compound 139a]
// query Hello, I need these entries ordered by pEC50, highest reading first. Thanks! # output: labels, in the requested order
// result 3, 2, 1
(3: 11.92, 2: 8.39, 1: 7.32)

I. CCn1cncc1Cn1c(/C=C(\C)C(=O)O)cnc1CN1CCC(c2cccc3c2OC(C)(c2ccc(Cl)cc2F)O3)CC1 (stereo not drawn) [Compound 138]
II. CCc1ncccc1Cn1c(/C=C/C(=O)O)cnc1CN1CCC(c2cccc3c2OC(C)(c2ccc(Cl)cc2F)O3)CC1 (stereo not drawn) [Compound 148]
// query Looking only at measured pEC50, which entry is lower, I or II ? Refer to your chosen item by its label in the answer.
// result II

a. CC(=CC(=O)O)c1nnc(CN2CCC(c3cccc(OCc4ccc(Cl)cc4F)n3)CC2)n1CC1CCC1 [Compound 236]
b. C[C@]1(c2ccc(Cl)cc2F)Oc2cccc(C3CCN(Cc4ncc(/C=C/C(=O)O)n4C[C@H]4CCOC4)CC3)c2O1 [Compound 155]
c. O=C(O)/C=C/c1cn(Cc2ncco2)c(CN2CCC(c3cccc4c3OC[C@@H](c3ccc(Cl)cc3)O4)CC2)n1 [Compound 222a]
d. C[C@]1(c2ccc(Cl)cn2)Oc2cccc(C3CCN(Cc4ncc(-c5nnc(C(F)(F)F)[nH]5)cc4CC4(C#N)CC4)CC3)c2O1 [Compound 277]
e. COCCn1c(Cc2noc(=O)[nH]2)cnc1CN1CCC(c2cccc3c2OC(C)(c2ccc(Cl)cc2F)O3)CC1 (stereo not drawn) [Compound 251]
// query Hello, I need these entries ordered by pEC50, highest reading first. Thanks! # output: labels, in the requested order
// result b, d, c, e, a
(b: 11.27, d: 10.64, c: 8.16, e: 7.89, a: 7.42)
